# Tested on: Plasmodium berghei
# assayExplanation: Screen against P. berghei liver stage (PbLuc), transformed with Luciferase, at 10uM
# Format: functional, HepG2
# measurementContext: tested at 10 uM
Hit rate of the full screen: of about 69,000 compounds, about 8,600 (12%) showed an effect of 50% or more. Only a selection was taken, and strong results are over-represented in it overall.
readoutName: INHIBITION (%)
Write the answer as a number in %, unit excluded.

Examples with their reported INHIBITION follow.
> print(dat)
                                   compound  readoutname  number
1  CC(C)c1nc(C2CCCN2Cc2nccn2CC(F)(F)F)no1 (stereo not drawn)   INHIBITION    26.4
2  CN(Cc1ccco1)C(=O)C1CSCN1C(=O)c1cccs1 (stereo not drawn)   INHIBITION   -31.8
3  O=C(CCO)N1CCC2(CCc3ccc(-c4ccoc4)cc32)CC1   INHIBITION   0.923
4       O=C(Nc1ccc(CC(=O)N2CCCC2)cc1)NC1CC1   INHIBITION    36.2
5          CCN(CC)CC1CCN(C(=O)CCn2cccn2)CC1   INHIBITION   17.15
6  CNc1cc(N2CCCC2CNCc2cccnc2)ncn1 (stereo not drawn)   INHIBITION   -3.19

Param item = `c1cncc(-c2ccc3c(c2)CCC32CCNCC2)c1` ; retrieve measured INHIBITION.
57.1

Ok, now `Cc1ccc(S(=O)(=O)N2CC[C@@H]3C[C@H](NC(=O)c4ccncc4)[C@@H]32)cc1`
20.4

Ok, now `CCN(CCNC(=O)c1ccccc1OCCOC)C1CC1`
58.8

Ok, now `O=C(Nc1ccc(CC(=O)N2CCSCC2)cc1)NC1CC1`
53.8

###

# Tested on: Plasmodium berghei
# assayExplanation: Screen against P. berghei liver stage (PbLuc), transformed with Luciferase, at 10uM
# Type: functional, HepG2
# measurementContext: tested at 10 uM
The campaign covered roughly 69,000 compounds. About 8,600 (12%) showed an effect of 50% or more. Shown is part of a subset that was picked to be rich in strong results.
readoutName: INHIBITION (%)
Write the answer as a number in %, unit excluded.

Examples with their reported INHIBITION follow.
> print(dat)
                                   compound  number
1        COc1ccc(F)cc1CSCC(=O)N(CCC#N)CCC#N   -28.8
2    Cc1nc(C)n(CCC(=O)N2CCc3ncc(Cl)cc3C2)n1    24.4
3  Cn1cc(C2CC(=O)NC23CCN(C(=O)C2CC=CC2)CC3)cn1 (centres undefined)   -61.6

Param item = `O=C(NS(=O)(=O)c1cnn(-c2ccccc2F)c1)c1ccoc1` ; retrieve measured INHIBITION.
-17.4

Ok, now `CC(C)(C)C(=O)NCCC(=O)N1CCC(Nc2cccnn2)CC1`
41.5

Ok, now Cc1cc(C(=O)NC2CCC3(CCC(=O)N3)CC2)no1 (centres undefined)
-20.8

Ok, now `O=C(NC[C@H]1OC[C@@H]2CCN(C3CCOCC3)C[C@@H]21)c1ccncc1`
36.2

Ok, now O=C1N(c2ccsc2)CCC12CCCN(c1ccccn1)C2 (centres undefined)
42.1

Ok, now Cc1ccc(O)c(C(=O)N2CCOCC2c2c(C)nn(C)c2C)c1 (centres undefined)
-57.4

Ok, now COc1cccc2c1OCC(C(=O)N(C)CCCc1cnn(C)c1)C2 (centres undefined)
40.9

Ok, now `Cc1ccc(C(=O)Nc2c(C(=O)N(C)C)nn(C)c2C)cc1C`
35

Values from ChEMBL document CHEMBL4513216
